test: protein stability index of a GFP-peptide fusion (GPS, HEK-293T) (PSI 1-6); higher = more stable; conditions: treatment: DMSO; c terminus: a fixed tail appended;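 further: 24-mer peptide tiles fused after GFP, lentivirally expressed, FACS-sorted into six equal bins by GFP/DsRed ratio, decoded by Illumina sequencing, PSI is the read-weighted mean bin number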
VALUE TYPE: protein stability index

                               sequence  value_observed
 0      MTELRQRVAHEPVAPPEDKESESE [CDS2]            5.39
 1     STHELEKKELEENFEKLRLSLQDQ [MTUS2]            5.43
 2     VQLQRIPLSAVYRICLGKFTFPGM [TPRG1]            2.65
 3     YLNGASVLPHKSIGESVPEPRIIM [GMPPB]            2.79
 4    VELARYLVDVRQEQLQGFNTRVRE [DNAAF3]            2.54
 5   DESGGPDNEDYPLFRELWRYHFAT [KLHDC10]            2.95
 6      VEKLKQMQEFFGLKVTGKPDAETL [MMP1]            3.63
 7  SMEGVRWAFSCGTWLPSRAEWLLA [AASDHPPT]            2.65
 8   STVKTETISFGSVSPGGVKLEIST [EPB41L3]            3.19
 9    NVPNVCRMYCSDLLNPNLKDTVIC [SPACA3]            2.15
10   YPIIFVYYLRKGKKINSNQLENEQ [SPANXN3]            2.37
11    RERREEDRAPAEQVPRSPVIKISY [PWWP2B]            4.34
12      PSLSTITSTSSSITSSIPDTERLD [DVL3]            5.23

* * *

Overview of reported protein stability index across a group of sequences:
test: protein stability index of a GFP-peptide fusion (GPS, HEK-293T) (PSI 1-6); higher = more stable; settings: treatment: DMSO; c terminus: a fixed tail appended
VALUE TYPE: protein stability index

>>> df
                              sequence  value_observed
 0  KSVLIPVYGVSKETFLSFLEYLYT [RHOBTB3]            2.24
 1    SPPVMVAGGRVFVLPCIQQIQRIS [FLOT1]            2.15
 2    EVKLLLSSETPIEGKNMSFVNDLT [APMAP]            3.35
 3     AKLHDVELHQVAERVEALGQFVMK [GNB5]            3.78
 4   RKQKQELCEKFDYLYGILEERKNE [TRIM55]            3.72
 5    YPEDSSWAAKAPGASSREEPPEEP [SPDEF]            4.21
 6    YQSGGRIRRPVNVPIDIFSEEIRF [KCNA3]            2.49
 7   CTEKFKTSRDRKDHMVRMHLYPAD [ZNF511]            3.49
 8     PLPHPGAAPWPMAFPYQYPPPPHP [DVL3]            3.15
 9    APATGSGTPGPFTKEGGMLAYYEV [CHIT1]            2.55
10    ALSLLELLGFNLTFVFLASLLVLI [CLCN6]            3.23
11  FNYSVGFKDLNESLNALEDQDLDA [APBB1IP]            4.13
12  TEIEEELKSLDKEISEAFTSTGFD [BCL2L13]            5.16
13   RKGLQHGFFDFETFDVDEYEHYER [CDC14A]            3.93
14     RGDSGRLGLGTRESHSCPQQVPMP [NEK8]            4.07
15     TSRGKLGGQDSFESIESYDSCDRL [ETS1]            4.62
16  NRSLAEACSEGDVNAVRKLLIEGR [ANKRD17]            4.01
17   IYVVGGYSWNNRCMVEIVQKYDPD [KLHL13]            2.99
18    LTRKGLVRVVFFPLFSNWWIQVTS [PHTF1]            3.06
19     ALRNLPPLRAAHRRFNFDTDRPLL [SMG5]            2.72
20   LPVETLGPASRMDPESERALQAPH [PBXIP1]            4.58
21    DSDVPEQRDSKCKVKWTHEEDEQL [MYBL2]            5.44
22    AVQHFYNIKLEGKVPMHKLFLEML [ESRRG]            2.06
23    VLDCRPYLAFAASNVRGSLNVNLN [DUSP5]            2.19
24   PVHLVDKLPLPIALRSHLKSFSMA [RAB40B]            2.46
25    RAAAAAAVAAATAAVEGSGGSGGG [KCNA4]            4.88
26    KGKKLYPVVSAVWGHCEVTMRYIN [SPSB4]            2.43
27   VVHWVQSIGLRDYAGNLHESGVHG [PPFIA4]            2.56
28   EFRRWRDTGVAFELRDSSAYHVPN [DNAAF3]            2.75
29   IHERTHERERLYPFSECGEAVSDS [ZNF263]            4.81
30   ASALRTRMTGGRPPLPPPDDPATL [DYRK1B]            4.65
31   LLRHGMDRLWRPSKVLSLQDLCCR [RAB40B]            3.03
32   DAAHPTNVQRLAEPSQMLKHAVVN [CTNNB1]            4.62
33    AFHPLFSLTSGACRLDYRRPENRS [TCF25]            2.29
34     KNRSFDIDAIYSVIDDAKQYVYIA [PLD5]            2.75
35   PPPASQPVVKALFGASAAGGLSPV [CDC25A]            4.08
36  KIMGVEEEDDDDDDDDNLPQLKKE [ANKRD40]             5.6
37  STNGEKTKSPCESNNKKNDEMQEV [SPANXN3]            5.53
38  SMEIYGSAVADKLDNSRSILKRRY [CTDNEP1]            3.28
39   FHIFRTLEVNRLMGKLLQQPNTYA [PKD2L1]            2.46
40    SSGSFCYCHPDSETDEDEEEGDEQ [GMCL1]            5.52
41    SLKGSLSVEEQLSLISGCPNIQEA [CRYL1]            4.18
42    VEGAMHIQECVPEDLELKKKIFAQ [CRYL1]            4.74
43     TRKREDAEHNLVLFRKDVDDATLS [PRPH]            4.77
44    FYKREMFDPAEKYKMDHRRRGIAL [CASP6]            2.84
45    VKKSCWTEEEDRIICEAHKVLGNR [MYBL2]            3.33
46    PGRREGCDICAGKAGCPIVEEPLG [RPS21]            4.09
47      NVPRICGVCGDRATGFHFNAMTCE [VDR]            2.83
48    QRDGSKSEDELDQASTPTDVRDID [CCND2]            5.62
49   RCPVTVCGDVHGQFHDLMELFRIG [PPP2CA]             2.2
50     KDTDLARVRRFQVVEVTKGILEHV [M1AP]            2.55
51    LIRYICGVVHPSNEVLSSDILPRW [INTS3]            2.66
52  VRPGTPPDFILKVVIDKHPVRFFV [CTDNEP1]            2.95

* * *

assay: protein stability index of a GFP-peptide fusion (GPS, HEK-293T) (PSI 1-6); higher = more stable; details: treatment: DMSO; c terminus: a fixed tail appended
# if value of protein stability index reaches 3, tag 1; if it stays below, tag 0

>>> df
                               sequence  assigned_class
 0   VEFNHTGELLATGDKGGRVVIFQR [PPP2R2C]               0
 1      YQLCHALRFLHENQLTHTDLKPEN [CLK3]               1
 2     DRVLRAMLKAEETCAPSVSYFKCV [CCND1]               0
 3      NQTAELRELLEFTHMYLQSDDEME [P3H4]               1
 4     VSTMRCKTRQKSEKQMEEKRRANQ [PPEF2]               1
 5     PYSTVDNPVYYGPSDFFIGAVIEV [EFHC1]               0
 6    DQENFQGKRMEFTSSCPNVSERSF [CRYBA1]               1
 7  SASSPASVGDPCGGAICGGPDHRL [SLC25A25]               1
 8   AAPLPERNSLSAIFNNVMTLCAML [SLC29A1]               0
 9    SQILQNKKHKNSQLDKNSEVYQEV [FAM98B]               1
10     EFSRATAEKVNQDMCMKVPDDPEH [CRYL1]               1
11  ASTSTPSSTLVRPIRSRRALPPLR [FAM189A2]               1
12     SRVLLSAIEGIPGSDYVNANYIDG [PTPRD]               1
13     SVEYGYRPGATAVPTPLTNVQILL [FCHO1]               0
14    RLDKHLYVIGGRNETGYLSSVECY [KLHL14]               0
15     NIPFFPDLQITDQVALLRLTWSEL [NR2F2]               0
16     HSEVVEELVSADVIDLFDEQGLSA [RIPK4]               1
17     KQLVSPAAALLSNTTCQTENRLSV [PTGFR]               1
18      MSNQQEKYEAQNIVNSTEESDDAF [IQUB]               1
19    EVMERDAKDYADSIHAIFVETSAK [RAB22A]               1
20      DVSLPRGAFPPRGPRPVQSVVPEM [CDK4]               1
21     NQTALHLAAAHGHSEVVEELVSAD [RIPK4]               1

src = the supplement of paper PMC10567573
